- Procedure details: Inhibition of Bothrops atrox venom phosphodiesterase-1 assessed as conversion of […] p-nitrophenol using bis(p-nitropheny1) phosphate as substrate preincubated for 30 mins by spectrophotometric analysis
Label TRUE when IC50 is strictly below 6 µM; at or above that, label FALSE.

> print(dat)
                                 smiles.data  group.label
 1  O=[N+]([O-])c1ccc2[nH]c(-c3ccc(Cl)cc3)nc2c1        FALSE
 2      O=C(O)CN(CCN(CC(=O)O)CC(=O)O)CC(=O)O        FALSE
 3  O=[N+]([O-])c1ccc2nc(-c3ccc(O)cc3O)[nH]c2c1        FALSE
 4  O=[N+]([O-])c1ccc2nc(-c3cc(Cl)cc(Cl)c3O)[nH]c2c1        FALSE
 5  O=[N+]([O-])c1ccc2nc(-c3ccc(O)cc3)[nH]c2c1         TRUE
 6  O=[N+]([O-])c1ccc2nc(-c3ccc(O)c(O)c3O)[nH]c2c1        FALSE
 7  O=[N+]([O-])c1ccc2nc(-c3cccc(O)c3O)[nH]c2c1         TRUE
 8  O=[N+]([O-])c1ccc2nc(-c3ccc(O)c(O)c3)[nH]c2c1         TRUE
 9  O=[N+]([O-])c1ccc2nc(-c3c(O)cc(O)cc3O)[nH]c2c1        FALSE
10  O=[N+]([O-])c1ccc(-c2nc3cc([N+](=O)[O-])ccc3[nH]2)cc1        FALSE
11  COc1ccc(-c2nc3cc([N+](=O)[O-])ccc3[nH]2)cc1OC        FALSE
